Test system: Hepatitis B virus
ASSAY_INFO: Antiviral activity against HBV infected in human HepG2(2.2.15) cells assessed as inhibition of HBsAg production after 9 days by ELISA
Assay type: functional, organism-based
CONDITION_LABEL: HepG2 2.2.15, 216 h
Recorded IC50, one value per entry.

Request: Fill in the blank: the reported IC50 of `O=C(/C=C/c1coc2cc(O)ccc2c1=O)NCc1ccc(F)cc1F` is ____.
Response: 14.5 µM

Request: Fill in the blank: the reported IC50 of `COc1ccc2c(=O)c(/C=C/C(=O)Nc3cccc(Cl)c3)coc2c1` is ____.
Response: > 100 µM

Request: Fill in the blank: the reported IC50 of `COc1ccc(CNC(=O)/C=C/c2coc3cc(OC)ccc3c2=O)cc1` is ____.
Response: 14 µM

Request: Fill in the blank: the reported IC50 of `COc1ccc(NC(=O)/C=C/c2coc3cc(O)ccc3c2=O)cc1` is ____.
Response: > 100 µM

Request: Fill in the blank: the reported IC50 of `COc1ccc2c(=O)c(/C=C/C(=O)Nc3ccccc3)coc2c1` is ____.
Response: 16 µM

More entries:
Request: Fill in the blank: the reported IC50 of `COc1ccc2c(=O)c(/C=C/C(=O)Nc3cccc(C)c3)coc2c1` is ____.
Response: > 100 µM

Request: Fill in the blank: the reported IC50 of `O=C(/C=C/c1coc2cc(O)ccc2c1=O)NCc1ccc(F)cc1` is ____.
Response: > 100 µM

Request: Fill in the blank: the reported IC50 of `COc1ccc2c(=O)c(/C=C/C(=O)NCCc3cccc(F)c3)coc2c1` is ____.
Response: > 100 µM

Request: Fill in the blank: the reported IC50 of `COc1ccc2c(=O)c(/C=C/C(=O)NCc3ccccc3)coc2c1` is ____.
Response: > 100 µM

###

Recorded pIC50, one value per entry.
System: Hepatitis B virus
ASSAY_INFO: Antiviral activity against HBV infected in human HepG2(2.2.15) cells assessed as inhibition of viral replication after 9 days by fluorescence PCR method
Assay type: functional, organism-based
CONDITION_LABEL: HepG2 2.2.15, 216 h
pIC50: −log10 of the molar value.

Request: Fill in the blank: the reported pIC50 of `COc1ccc2c(=O)c(/C=C/C(=O)NCCc3ccc(F)cc3)coc2c1` is ____.
Response: < 4.00

Request: Fill in the blank: the reported pIC50 of `COc1ccc2c(=O)c(/C=C/C(=O)Nc3ccccc3Cl)coc2c1` is ____.
Response: < 4.00

Request: Fill in the blank: the reported pIC50 of `COc1ccc2c(=O)c(/C=C/C(=O)Nc3cccc(Cl)c3)coc2c1` is ____.
Response: < 4.00

Request: Fill in the blank: the reported pIC50 of `COc1ccc2c(=O)c(/C=C/C(=O)Nc3ccccc3OC)coc2c1` is ____.
Response: < 4.00

Request: Fill in the blank: the reported pIC50 of `Cc1ccc(CNC(=O)/C=C/c2coc3cc(O)ccc3c2=O)cc1` is ____.
Response: 4.85

More entries:
Request: Fill in the blank: the reported pIC50 of `O=C(/C=C/c1coc2cc(O)ccc2c1=O)Nc1ccccc1` is ____.
Response: 4.54

Request: Fill in the blank: the reported pIC50 of `COc1ccc2c(=O)c(/C=C/C(=O)Nc3cccc(C)c3)coc2c1` is ____.
Response: 4.46

Request: Fill in the blank: the reported pIC50 of `COc1ccc(CNC(=O)/C=C/c2coc3cc(O)ccc3c2=O)cc1` is ____.
Response: 5.33
